Source: paper PMC8126888

- test.method.notes: physchem
- assay.setup: HPLC, Ascentis Express RP Amide column, pH 7.4, elog D, HPLC measured log D, pH 7.4
Kindly return Met if reported chromatographic logD is no lower than 4; return Not met if it is lower.

Solved entries:
> print(dat)
                                   compound  assigned.class
1  COc1ccc(OC)c(S(=O)(=O)N(Cc2ccc(F)cc2)Cc2ccnn2C)c1 [Compound 35]         Not met
2  COc1ccc(S(=O)(=O)N(Cc2ccccc2)Cc2ccccc2)cc1 [Compound 11]             Met
3  COc1ccc(OC)c(S(=O)(=O)N(Cc2ccccc2)Cc2ccccc2)c1 [Compound 9]             Met
4  COc1ccc([S+](C)[O-])cc1S(=O)(=O)N(Cc1ccccc1)Cc1ccccc1 (stereo not drawn) [Compound 28]         Not met
5  COc1ccc(C(=O)N2CCOCC2)cc1S(=O)(=O)N(Cc1ccc(F)cc1)CC(C)C [Compound 44]         Not met

Incoming: Dear colleague, could you confirm whether COc1ccc(OC)c(S(=O)(=O)N(Cc2ccc(F)cc2)Cc2ccc(F)cc2)c1 [Compound 32] has chromatographic logD at or above 4?
Outgoing: Met

Incoming: Dear colleague, could you confirm whether COc1ccc(C(=O)N2CCOCC2)cc1S(=O)(=O)N(Cc1ccc(F)cc1)Cc1ccc(C(F)(F)F)nc1 [Compound 46] has chromatographic logD at or above 4?
Outgoing: Not met

Incoming: Dear colleague, could you confirm whether N#Cc1ccc(O)c(S(=O)(=O)N(Cc2ccc(F)cc2)Cc2ccc(F)cc2)c1 [Compound 16] has chromatographic logD at or above 4?
Outgoing: Not met

Incoming: Dear colleague, could you confirm whether COc1ccc(C#N)cc1S(=O)(=O)N(Cc1ccccc1)Cc1cnc(C(F)(F)F)nc1 [Compound 49] has chromatographic logD at or above 4?
Outgoing: Not met
